species on record: Rattus norvegicus; assay: Open TG-GATES - Regimen: Single; type: toxicity, organism-based, Sprague-Dawley; set-up: regimen Single, gender Male, age 6 weeks; conditions: in vivo, po, 300 mg/kg, 24 h, tissue Plasma, route gavage, dose level Middle
CRE for assorted molecules
Entry format: amount then unit.

# example entries with known answers
MOLECULE	CRE
CN/C(=N/CCSCc1nc[nH]c1C)NC#N [CIMETIDINE]	0.4 mg/dL
CNC(=C[N+](=O)[O-])NCCSCc1ccc(CN(C)C)o1 [RANITIDINE]	0.4 mg/dL
COC(=O)C1=C(C)NC(C)=C(C(=O)OC)C1c1ccccc1[N+](=O)[O-] [NIFEDIPINE]	0.2 mg/dL
O=C(OC[C@H]1O[C@@H](OC(=O)c2cc(O)c(O)c(OC(=O)c3cc(O)c(O)c(O)c3)c2)[C@H](OC(=O)c2cc(O)c(O)c(OC(=O)c3cc(O)c(O)c(O)c3)c2)[C@@H](OC(=O)c2cc(O)c(O)c(OC(=O)c3cc(O)c(O)c(O)c3)c2)[C@@H]1OC(=O)c1cc(O)c(O)c(OC(=O)c2cc(O)c(O)c(O)c2)c1)c1cc(O)c(O)c(OC(=O)c2cc(O)c(O)c(O)c2)c1 [TANNIC ACID]	0.5 mg/dL

Moving on to the next molecule.
Form field CRE, entry Cc1nnc2n1-c1ccc(Cl)cc1C(c1ccccc1Cl)=NC2 [TRIAZOLAM] : 0.2 mg/dL
